// values below are reported normalised response
Tested on: MDA-MB-436
Experiment: normalised response (% of control), CellTiter-Glo; higher = more viable cells (100 = DMSO, 0 = benzethonium chloride kill control)
Conditions: incubation time: 72 h

molecule: CCS(=O)(=O)c1cccc(-c2cc(C(=O)NC3CCN(C)CC3)c(C)c3[nH]c4ncc(C)cc4c23)c1 [TAK-901] (10 nM)
study-system: MDA-MB-436
units-text: %
normalised response: 110
--
molecule: CN(c1ccccc1CNc1nc(Nc2ccc3c(c2)CC(=O)N3)ncc1C(F)(F)F)S(C)(=O)=O (100 nM)
study-system: MDA-MB-436
units-text: %
normalised response: 91.9
--
molecule: C[C@@H]1CCN(C(=O)CC#N)C[C@@H]1N(C)c1ncnc2[nH]ccc12 [Tofacitinib] (50 nM)
study-system: MDA-MB-436
units-text: %
normalised response: 98.7
--
molecule: CCCC(CCC)C(=O)O [Valproic acid] (10000 nM)
study-system: MDA-MB-436
units-text: %
normalised response: 105
--
molecule: FC(F)c1nc2ccccc2n1-c1nc(N2CCOCC2)nc(N2CCOCC2)n1 [ZSTK474] (100 nM)
study-system: MDA-MB-436
units-text: %
normalised response: 88.5
--
molecule: COC(=O)C[C@](O)(CCCC(C)(C)O)C(=O)O[C@@H]1C(OC)=C[C@]23CCCN2CCc2cc4c(cc2[C@H]13)OCO4 [Omacetaxine] (100 nM)
study-system: MDA-MB-436
units-text: %
normalised response: 20

Attribution: the supplement of paper PMC4862054
